System under test: Exportin-1 (Homo sapiens, UniProt O14980)
Sequence (O14980 whole entry, the tested form may be a part): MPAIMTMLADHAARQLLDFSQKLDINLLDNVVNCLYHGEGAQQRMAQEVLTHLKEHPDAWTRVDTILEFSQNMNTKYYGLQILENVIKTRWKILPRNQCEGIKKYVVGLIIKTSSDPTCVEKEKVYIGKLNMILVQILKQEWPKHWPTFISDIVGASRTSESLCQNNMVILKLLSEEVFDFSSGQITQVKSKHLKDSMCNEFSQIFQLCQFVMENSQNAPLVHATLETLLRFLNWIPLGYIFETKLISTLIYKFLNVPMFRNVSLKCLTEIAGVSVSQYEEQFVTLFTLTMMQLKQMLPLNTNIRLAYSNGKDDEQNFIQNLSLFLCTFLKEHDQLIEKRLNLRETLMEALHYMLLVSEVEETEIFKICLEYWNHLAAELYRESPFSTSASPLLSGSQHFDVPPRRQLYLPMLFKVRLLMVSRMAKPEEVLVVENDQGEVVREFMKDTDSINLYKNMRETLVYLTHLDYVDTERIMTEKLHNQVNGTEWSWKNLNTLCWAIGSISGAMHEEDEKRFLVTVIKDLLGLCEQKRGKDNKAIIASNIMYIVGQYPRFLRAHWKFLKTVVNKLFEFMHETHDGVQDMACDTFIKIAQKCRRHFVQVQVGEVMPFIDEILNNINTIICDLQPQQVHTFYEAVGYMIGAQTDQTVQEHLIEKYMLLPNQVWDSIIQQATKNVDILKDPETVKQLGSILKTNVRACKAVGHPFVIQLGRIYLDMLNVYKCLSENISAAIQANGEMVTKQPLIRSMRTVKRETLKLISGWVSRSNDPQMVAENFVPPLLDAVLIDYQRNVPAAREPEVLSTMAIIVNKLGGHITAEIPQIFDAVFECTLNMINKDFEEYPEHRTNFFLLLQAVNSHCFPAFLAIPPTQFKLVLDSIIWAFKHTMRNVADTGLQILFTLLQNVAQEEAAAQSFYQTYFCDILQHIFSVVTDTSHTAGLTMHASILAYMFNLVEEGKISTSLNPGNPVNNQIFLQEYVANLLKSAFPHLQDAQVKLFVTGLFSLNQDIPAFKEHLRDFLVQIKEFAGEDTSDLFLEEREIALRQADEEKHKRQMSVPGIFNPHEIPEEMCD
Test summary: Inhibition of Crm1 in human U2OS cells expressing GFP-fused HIV1 Rev assessed as decrease in nuclear export of GFP-fused HIV1 Rev after 1 hr by Hoechst 33258 staining-based assay
IC50 by entry:
Endpoint label: IC50

>>> obs_value("FC(F)(F)/C=C\\n1cnc(-c2cccc(Cl)c2)n1")
"1000 to 10000 nM"
>>> obs_value("CC(C)OC(=O)/C=C\\n1cnc(-c2csc(Cl)n2)n1")
"1000 to 10000 nM"
>>> obs_value("CC(C)Oc1cc(-c2ncn(/C=C\\C(=O)OCc3ccccn3)n2)cc(C(F)(F)F)n1")
"≤ 1000 nM"
>>> obs_value("CC(C)OC(=O)/C=C\\n1cnc(-c2ccc(Cl)cc2)n1")
"≤ 1000 nM"
>>> obs_value("CC(C)Nc1cc(-c2ncn(/C=C\\C(=O)OC(C)C)n2)cc(Cl)n1")
"≤ 1000 nM"
>>> obs_value("CC(C)OC(=O)/C=C\\n1cnc(-c2cc(OCCN(C)C)cc(C(F)(F)F)c2)n1")
"≤ 1000 nM"
>>> obs_value("N#C/C=C/n1cnc(-c2cccc(Cl)c2)n1")
"1000 to 10000 nM"
>>> obs_value("CC(C)OC(=O)/C=C\\n1cnc(-c2cc(Cl)ccc2N)n1")
"≤ 1000 nM"
>>> obs_value("COc1ccc(NC(=O)/C=C/n2cnc(-c3cccc(Cl)c3)n2)cc1")
"≥ 10000 nM"
>>> obs_value("CC(C)OC(=O)/C=C\\c1n[nH]c(-c2cc(Cl)cc(Cl)c2)n1")
"1000 to 10000 nM"
>>> obs_value("O=C(/C=C\\n1cnc(-c2cccc(Cl)c2)n1)OC1CCCCC1")
"≤ 1000 nM"
>>> obs_value("N#C/C=C\\n1cnc(-c2cccc(Cl)c2)n1")
"≤ 1000 nM"
>>> obs_value("O=C(/C=C\\n1cnc(-c2cccc(Cl)c2)n1)OC1CCC1")
"≤ 1000 nM"
>>> obs_value("C[S+]([O-])/C=C\\n1cnc(-c2cccc(Cl)c2)n1 (stereo not drawn)")
"1000 to 10000 nM"
>>> obs_value("COc1cc(-c2ncn(/C=C\\C(=O)OC(C)C)n2)cc(C(F)(F)F)c1")
"≤ 1000 nM"
>>> obs_value("O=C(/C=C\\n1cnc(-c2cccc(Cl)c2)n1)OCC1CCCN1 (stereo not drawn)")
"1000 to 10000 nM"
>>> obs_value("O=C(/C=C\\n1cnc(-c2cc(Cl)nc(Cl)c2)n1)OC1CNC1")
"≤ 1000 nM"
>>> obs_value("Nc1ccc(NC(=O)/C=C/n2cnc(-c3cccc(Cl)c3)n2)cc1")
"≥ 10000 nM"
>>> obs_value("CC(C)OC(=O)/C=C/n1cnc(-c2cc(OCCN(C)C)cc(C(F)(F)F)c2)n1")
"1000 to 10000 nM"
>>> obs_value("O=C(/C=C\\n1cnc(-c2cccc(Cl)c2)n1)OC1COC(=O)C1 (stereo not drawn)")
"1000 to 10000 nM"
>>> obs_value("CC(C)OC(=O)/C=C/Cn1cnc(-c2cccc(Cl)c2)n1")
"1000 to 10000 nM"
>>> obs_value("O=C(/C=C\\c1nnc(-c2cccc(Cl)c2)[nH]1)Nc1ccccc1")
"≥ 10000 nM"
>>> obs_value("O=C(/C=C\\n1cnc(-c2cccc(Cl)c2)n1)OC1CCOCC1")
"≤ 1000 nM"

These data points were gathered from ChEMBL document CHEMBL3879893.
